# System: SK-MEL-5 melanoma
# experimentNotes: NCI-60 one-dose screen, 48 h
# statedConditions: 10 µM unless noted
# Procedure: Growth inhibition of the SK-MEL-5 human tumor cell line is measured as a screen for anti-cancer activity. Cells are grown in 96 well plates and exposed to the test compound for 48 hours. Compounds are tested at a single concentration, which is 10^-5 M for most compounds. The reported endpoint is percent growth (GI% or GIPRCNT), where numbers from 0 - 100% represent growth inhibition, and numbers from -100% - 0 represent cell death. For example, a value of 40 represents 60% growth inhibition. […]
This is part of a sample that, as a whole, favours compounds with a hit. Of some 83,000 tested, about 20% had one in any assay. Active and inactive are the calls of the source. The calls were made as follows: active = growth percent below 10; inactive = the rest.
Result category, one only: class 1 (active), class 0 (inactive)

Prompt line: Short answer needed: outcome of this test for `CC/C(=C(/c1ccc(O)cc1)c1ccc(OCCN2CCCCCC2)cc1)c1ccc(Cl)cc1` ?
Response line: class 0

Prompt line: Short answer needed: outcome of this test for `Cc1oc2c(Cc3ccc(NC(=O)c4ccc(Cl)cc4)cc3)ncnc2c1C(=O)NO` ?
Response line: class 0

Prompt line: Record lookup: outcome of this test for `CN1CCN(c2ccc(Nc3ncc(C(N)=O)c(NCCCNC(=O)C4CCC4)n3)cc2)CC1` ?
Response line: class 0

Prompt line: Status in this test for COc1c(O)c(O)cc2c3c(oc12)CC(c1ccc2c(c1)OCO2)CC3=O (stereo not given) ?
Response line: class 0

Prompt line: Which result was noted for this compound in the test: CC[C@]1(O)CC2CN(CCc3c([nH]c4ccccc34)C(C(=O)OC)(c3cc4c(cc3OC)N(C=O)[C@H]3[C@@](O)(C(=O)OC)[C@H](OC(C)=O)[C@]5(CC)[C@@H]6C[C@@H]6CN6CC[C@]43[C@@H]65)C2)C1 (stereo not given in full)
Response line: class 1

Prompt line: Could you please tell me the result logged for `CC1(C)C(N)=Nc2cc(OCCCCN3Cc4ccccc4C3)c(OCC3CC3)cc21` in this assay?
Response line: class 0

Prompt line: # fetch the recorded call for `O=S(=O)(O)c1ccc(N=Nc2ccc(N=Nc3cccc4ccccc34)c(S(=O)(=O)O)c2)cc1` here
Response line: class 0

Prompt line: Field: outcome | Entry: `CN(C)C(=O)c1cc2cnc(Nc3ccc(-c4csc5c(=S)cc(N6CCOCC6)oc45)cc3)nc2n1C1CCCC1`
Response line: class 1

Prompt line: Would you mind telling me which call this test gave `CCN(CC)/C([O-])=c1\cccc\c1=C1\N=C(c2ccccc2)N=C1[n+]1ccc(-c2ccccc2)cc1` ?
Response line: class 0

Prompt line: Identify the outcome logged in this assay for the compound shown: NS(=O)(=O)OCC1OC(n2cnc3cncnc32)C(O)C1O (stereo not given)
Response line: class 0

Prompt line: Field: outcome | Entry: `O=C1/C(=C/c2ccc(F)c(F)c2)CN(C(=O)C(Cl)Cl)C/C1=C\c1ccc(F)c(F)c1`
Response line: class 1

Prompt line: Hi team, can someone confirm the assay call for `CCN1CCN(CC(=O)Nc2nc3ccc(NCc4ccc(C)cc4)cc3s2)CC1` ?
Response line: class 0

Prompt line: Hey, what did the test say about `CCCCC#Cc1c(/C=C(\CCCC)SCC)n(C)c(=O)[nH]c1=O` ?
Response line: class 0

Prompt line: Test call, this compound: `Cc1cc(N2CCN(CC(=O)Nc3ccc4c(ccn4Cc4ccccc4)c3)CC2)nc(N2CCCCCC2)n1`
Response line: class 0

Prompt line: # outcome recorded in this test, key = CCOC(=O)CC1CSC(c2cccc(Cl)c2)=N1 (stereo not given)
Response line: class 0

Prompt line: Assay result, entry `COC(=O)/C=C1/SC(=Nc2ccc([N+](=O)[O-])cc2)N(CCc2c[nH]c3ccccc23)C1=O` — outcome?
Response line: class 0

Prompt line: Outcome? `O=C(Nc1ccc2ccccc2c1)c1cc2ccccc2cc1O`
Response line: class 0

Prompt line: Recorded test call requested for `COc1ccc(CCNC(=O)COc2cc3c(Nc4ccc(F)c(Cl)c4)ncnc3cc2OC)cc1OC`
Response line: class 0

Prompt line: I would be grateful if you could indicate the recorded call for `CC1(C)C(N)=Nc2cc(OCCCN3Cc4ccc(OCCc5cn(CC(=O)N6CCC(CCN7CCCC7)CC6)nn5)cc4C3)c(OCC3CC3)cc21` .
Response line: class 0

Prompt line: Could you kindly confirm the outcome this assay logged for `O=C(NCc1ccc(Cn2c(=O)sn(-c3ccc(Cl)cc3)c2=O)cc1)OCc1ccc2c(Cl)cc(Cl)c(O)c2n1` ?
Response line: class 0

Sourced from PubChem BioAssay (NCI)
